- PROTOCOL_NOTES: Drug uptake in Sprague-Dawley rat brain administered at 10 mg/kg, po measured after 0.5 hrs
- Format: ADME, organism-based

{"SMILES_NOTATION": "C[C@H]1Cc2c(nnn2-c2ncc(F)cn2)CN1C(=O)c1ccnc(C(F)(F)F)c1F", "concentration at 0.5 h / ng/mL": 3040}
{"SMILES_NOTATION": "C[C@H]1Cc2c(nnn2-c2ncc(F)cn2)CN1C(=O)c1cccc(C(F)(F)F)c1F", "concentration at 0.5 h / ng/mL": 1060}

* * *

- PROTOCOL_NOTES: Oral bioavailability in Sprague-Dawley rat at 5 mg/kg by LC-MS/MS method
- Type: ADME, organism-based
- DETAILS: in vivo
OBSERVED_PROPERTY: bioavailability (%)

{"SMILES_NOTATION": "C[C@H]1Cc2c(nnn2-c2ncc(F)cn2)CN1C(=O)c1ccnc(C(F)(F)F)c1F", "MEASURED": 81}
